System: bovine artery endotheliocyte (BAE)
assay_protocol: Inhibition on the migration of bovine artery endotheliocyte (vascularization of tumor)
Format: cell-based
condition_info: at the 50% inhibitory concentration (IC50), 24 hours
measured_quantity: Migration-inhibition (% control), IC50
Report as: number unit

compound="CC(C)=CCC[C@](C)(O[C@@H]1O[C@H](CO[C@@H]2O[C@@H](CO)[C@H](O)[C@H]2O)[C@@H](O)[C@H](O)[C@H]1O)[C@H]1CC[C@]2(C)[C@@H]1[C@H](O)C[C@@H]1[C@@]3(C)CC[C@H](O)C(C)(C)[C@@H]3CC[C@]12C [Ginsenoside Mc]" observed="30.0 % control"
compound="Cc1ccc(C(=O)Nc2ccc(S(=O)(=O)O)c3cc(S(=O)(=O)O)cc(S(=O)(=O)O)c23)cc1NC(=O)c1cccc(NC(=O)Nc2cccc(C(=O)Nc3cc(C(=O)Nc4ccc(S(=O)(=O)O)c5cc(S(=O)(=O)O)cc(S(=O)(=O)O)c45)ccc3C)c2)c1 [Suramin, reference compound]" observed="37.1 % control"

Field: next compound
(Q) Give recorded Migration-inhibition (% control), IC50 with bovine artery endotheliocyte (BAE) for the following compound: CC(C)=CCC[C@](C)(O)[C@H]1CC[C@]2(C)[C@@H]1[C@H](O)C[C@@H]1[C@@]3(C)CC[C@H](O)C(C)(C)[C@@H]3[C@@H](O)C[C@]12C [20(S)-protopanaxatriol]
(A) 30.0 % control

----------
Recorded fold induction at 2.5 µM for the following compounds
System: leukemia cell line (P388)
assay_protocol: Antitumor activity of mouse spleen lymphocytes on leukemia cell line P388 (MTT)
Format: cell-based, mice
condition_info: P388, 16 h, read-out: Antitumor activity, times as high as control

Example cases with answers are listed next.
compound="CC(C)=CCC[C@](C)(O[C@@H]1O[C@H](CO[C@@H]2O[C@@H](CO)[C@H](O)[C@H]2O)[C@@H](O)[C@H](O)[C@H]1O)[C@H]1CC[C@]2(C)[C@@H]1[C@H](O)C[C@@H]1[C@@]3(C)CC[C@H](O)C(C)(C)[C@@H]3CC[C@]12C [Ginsenoside Mc]" measured_quantity="fold induction at 2.5 µM" observed=2
compound="CC(C)=CCC[C@](C)(O[C@@H]1O[C@H](CO)[C@@H](O)[C@H](O)[C@H]1O)[C@H]1CC[C@]2(C)[C@@H]1[C@H](O)C[C@@H]1[C@@]3(C)CC[C@H](O)C(C)(C)[C@@H]3CC[C@]12C [Compound K]" measured_quantity="fold induction at 2.5 µM" observed=1.6
compound="CC(C)=CCC[C@](C)(O)[C@H]1CC[C@]2(C)[C@@H]1[C@H](O)C[C@@H]1[C@@]3(C)CC[C@H](O)C(C)(C)[C@@H]3[C@@H](O)C[C@]12C [20(S)-protopanaxatriol]" measured_quantity="fold induction at 2.5 µM" observed=2

Field: next compound
(Q) Which value of fold induction at 2.5 µM has been reported for CC(C)=CCC[C@](C)(O[C@@H]1O[C@H](CO[C@@H]2OC[C@H](O)[C@H](O)[C@H]2O)[C@@H](O)[C@H](O)[C@H]1O)[C@H]1CC[C@]2(C)[C@@H]1[C@H](O)C[C@@H]1[C@@]3(C)CC[C@H](O)C(C)(C)[C@@H]3CC[C@]12C [Compound Y] in the records?
(A) 1.8
